Data provenance: patent US12233068B2

test system: FGF plus IL-1β-stimulated proliferation of human lung fibroblasts from patients with IPF; test: Cell proliferation assay (BrdU incorporation), Experiment B; type: cell-based; details: PDE4 inhibitor alone; IPF lung fibroblasts, n=5 donors; read-out: IC50, inhibition of FGF plus IL-1β-stimulated proliferation
readout-type: IC50 (nM)
Please respond with the number in nM and leave the unit unwritten.

Assay FGF plus IL-1β-stimulated proliferation of human lung fibroblasts from patients with IPF, sample O=C(Nc1c(Cl)c[n+]([O-])cc1Cl)c1ccc(OC(F)F)c(OCC2CC2)c1 [Roflumilast N-Oxide] , IC50 read: 0.44
